Test system: SNB-19
Test: Anticancer activity against human SNB-19 cells assessed as cell growth inhibition measured after 3 to 5 days by MTT assay
Assay type: functional, cell-based
experimental-endpoint: IC50 (µM)

[
  {
    "mol": "Cc1onc(-c2c3ccccc3c(-c3cccnc3)c3ccccc23)c1C(=O)Nc1cc(C(=O)N(CCCN(C)C)CCCN(C)C)n(C)c1",
    "target-of-assay": "SNB-19",
    "experimental-endpoint": "IC50",
    "result-qualifier": "=",
    "observed-value": 7.76
  },
  {
    "mol": "Cc1onc(-c2c3ccccc3c(-c3ccncc3)c3ccccc23)c1C(=O)Nc1cc(C(=O)N(CCCN(C)C)CCCN(C)C)n(C)c1",
    "target-of-assay": "SNB-19",
    "experimental-endpoint": "IC50",
    "result-qualifier": "=",
    "observed-value": 7.08
  },
  {
    "mol": "Cc1onc(-c2c3ccccc3c(-c3cccc4cccnc34)c3ccccc23)c1C(=O)Nc1cc(C(=O)N(CCCN(C)C)CCCN(C)C)n(C)c1",
    "target-of-assay": "SNB-19",
    "experimental-endpoint": "IC50",
    "result-qualifier": "=",
    "observed-value": 2.03
  },
  {
    "mol": "Cc1onc(-c2c3ccccc3c(-c3ccccn3)c3ccccc23)c1C(=O)Nc1cc(C(=O)N(CCCN(C)C)CCCN(C)C)n(C)c1",
    "target-of-assay": "SNB-19",
    "experimental-endpoint": "IC50",
    "result-qualifier": ">",
    "observed-value": 25
  }
]

Hey, just so you know, these numbers are from ChEMBL document CHEMBL4715858.
